Measured values drawn from patent US20150140169 for this set.

Target: T1, alpha-s1 casein from Bos taurus
T1 chain: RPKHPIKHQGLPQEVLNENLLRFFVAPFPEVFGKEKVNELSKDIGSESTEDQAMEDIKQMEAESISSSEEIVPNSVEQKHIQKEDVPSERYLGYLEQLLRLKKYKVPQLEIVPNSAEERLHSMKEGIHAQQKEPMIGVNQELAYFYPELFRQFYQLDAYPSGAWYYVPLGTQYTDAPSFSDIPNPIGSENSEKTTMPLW
# αs1 CN, 24 hours, 11° C. per record follows

{"protein": "camel chymosin variant #157 (D290T) (protein) GKVAREPLTSYLDSQYFGKIYIGTPPQEFTVVFDTGSSDLWVPSIYCKSNVCKNHHRFDPRKSSTFRNLGKPLSIHYGTGSMEGFLGYDTVTVSNIVDPNQTVGLSTEQPGEVFTYSEFDGILGLAYPSLASEYSVPVFDNMMDRHLVARDLFSVYMDRNGQGSMLTLGAIDPSYYTGSLHWVPVTLQQYWQFTVDSVTINGVAVACVGGCQAILDTGTSVLFGPSSDILKIQMAIGATENRYGEFDVNCGNLRSMPTVVFEINGRDYPLSPSAYTSKDQGFCTSGFQGTNNSELWILGDVFIREYYSVFDRANNRVGLAKAI", "reported": "1.36e+07 Volume"}

Next up:
# input Param item = Chymax M (recombinant camel chymosin) (protein) GKVAREPLTSYLDSQYFGKIYIGTPPQEFTVVFDTGSSDLWVPSIYCKSNVCKNHHRFDPRKSSTFRNLGKPLSIHYGTGSMEGFLGYDTVTVSNIVDPNQTVGLSTEQPGEVFTYSEFDGILGLAYPSLASEYSVPVFDNMMDRHLVARDLFSVYMDRNGQGSMLTLGAIDPSYYTGSLHWVPVTLQQYWQFTVDSVTINGVAVACVGGCQAILDTGTSVLFGPSSDILKIQMAIGATENRYGEFDVNCGNLRSMPTVVFEINGRDYPLSPSAYTSKDQGFCTSGFQGDNNSELWILGDVFIREYYSVFDRANNRVGLAKAI ; retrieve measured αs1 CN, 24 hours, 11° C..
# output 1.25e+07 Volume
